experiment: total protein half-life in vivo (active degradation + dilution); higher = more stable protein; settings: wild type E. coli NCM3722; growth: N-lim chemostat; doubling time 12 h

Biosequence: MRVLGIETSCDETGIAIYDDEKGLLANQLYSQVKLHADYGGVVPELASRDHVRKTVPLIQAALKESGLTAKDIDAVAYTAGPGLVGALLVGATVGRSLAFAWDVPAIPVHHMEGHLLAPMLEDNPPEFPFVALLVSGGHTQLISVTGIGQYELLGESIDDAAGEAFDKTAKLLGLDYPGGPLLSKMAAQGTAGRFVFPRPMTDRPGLDFSFSGLKTFAANTIRDNGTDDQTRADIARAFEDAVVDTLMIKCKRALDQTGFKRLVMAGGVSANRTLRAKLAEMMKKRRGEVFYARPEFCTDNGAMIAYAGMVRFKAGATADLGVSVRPRWPLAELPAA
total protein half-life in vivo (h): 4.16

###

assay: total protein half-life in vivo (active degradation + dilution); higher = more stable protein; details: E. coli NCM3722 delta-hslV; growth: N-lim chemostat; doubling time 6 h
Recorded measurements of total protein half-life in vivo, one per entry

Biosequence: MEQLRAELSHLLGEKLSRIECVNEKADTALWALYDSQGNPMPLMARSFSTPGKARQLAWKTTMLARSGTVRMPTIYGVMTHEEHPGPDVLLLERMRGVSVEAPARTPERWEQLKDQIVEALLAWHRQDSRGCVGAVDNTQENFWPSWYRQHVEVLWTTLNQFNNTGLTMQDKRILFRTRECLPALFEGFNDNCVLIHGNFCLRSMLKDSRSDQLLAMVGPGLMLWAPREYELFRLMDNSLAEDLLWSYLQRAPVAESFIWRRWLYVLWDEVAQLVNTGRFSRRNFDLASKSLLPWLA [P0AB03]
total protein half-life in vivo [h]: 2.54
--
Biosequence: MDTELLKTFLEVSRTRHFGRAAESLYLTQSAVSFRIRQLENQLGVNLFTRHRNNIRLTAAGEKLLPYAETLMSTWQAARKEVAHTSRHNEFSIGASASLWECMLNQWLGRLYQNQDAHTGLQFEARIAQRQSLVKQLHERQLDLLITTEAPKMDEFSSQLLGYFTLALYTSAPSKLKGDLNYLRLEWGPDFQQHEAGLIGADEVPILTTSSAELAQQQIAMLNGCTWLPVSWARKKGGLHTVVDSTTLSRPLYAIWLQNSDKNALIRDLLKINVLDEVY [P0A8R9]
total protein half-life in vivo [h]: 4.55

###

assay: total protein half-life in vivo (active degradation + dilution); higher = more stable protein; conditions: wild type E. coli NCM3722; growth: P-lim chemostat; doubling time 6 h
Parameter: total protein half-life in vivo (h)

Biosequence: MERFDAIIIGAGAAGMFCSALAGQAGRRVLLIDNGKKPGRKILMSGGGRCNFTNLYVEPGAYLSQNPHFCKSALARFTQWDFIDLVNKHGIAWHEKTLGQLFCDDSAQQIVDMLVDECEKGNVTFRLRSEVLSVAKDETGFTLDLNGMTVGCEKLVIATGGLSMPGLGASPFGYKIAEQFGLNVLPTRAGLVPFTLHKPLLEELQVLAGVAVPSVITAENGTVFRENLLFTHRGLSGPAVLQISSYWQPGEFVSINLLPDVDLETFLNEQRNAHPNQSLKNTLAVHLPKRLVERLQQLGQIPDVSLKQLNVRDQQALISTLTDWRVQPNGTEGYRTAEVTLGGVDTNELSSRTMEARKVPGLYFIGEVMDVTGWLGGYNFQWAWSSAWACAQDLIAAKSS
Readout Unit: h
Obs Value: 5.88

Biosequence: MSKVKSITRESWILSTFPEWGSWLNEEIEQEQVAPGTFAMWWLGCTGIWLKSEGGTNVCVDFWCGTGKQSHGNPLMKQGHQMQRMAGVKKLQPNLRTTPFVLDPFAIRQIDAVLATHDHNDHIDVNVAAAVMQNCADDVPFIGPKTCVDLWIGWGVPKERCIVVKPGDVVKVKDIEIHALDAFDRTALITLPADQKAAGVLPDGMDDRAVNYLFKTPGGSLYHSGDSHYSNYYAKHGNEHQIDVALGSYGENPRGITDKMTSADMLRMGEALNAKVVIPFHHDIWSNFQADPQEIRVLWEMKKDRLKYGFKPFIWQVGGKFTWPLDKDNFEYHYPRGFDDCFTIEPDLPFKSFL
Readout Unit: h
Obs Value: 3.67

###

assay: total protein half-life in vivo (active degradation + dilution); higher = more stable protein; conditions: E. coli NCM3722 delta-clpP; growth: N-lim chemostat; doubling time 6 h

Biosequence: MKAFDLHRMAFDKVPFDFLGEVALRSLYTFVLVFLFLKMTGRRGVRQMSLFEVLIILTLGSAAGDVAFYDDVPMVPVLIVFITLALLYRLVMWLMAHSEKLEDLLEGKPVVIIEDGELAWSKLNNSNMTEFEFFMELRLRGVEQLGQVRLAILETNGQISVYFFEDDKVKPGLLILPSDCTQRYKVVPESADYACIRCSEIIHMKAGEKQLCPRCANPEWTKASRAKRVT
total protein half-life in vivo / h: 6.17

Biosequence: MIQPISGPPPGQPPGQGDNLPSGTGNQPLSSQQRTSLESLMTKVTSLTQQQRAELWAGIRHDIGLSGDSPLLSRHFPAAEHNLAQRLLAAQKSHSARQLLAQLGEYLRLGNNRQAVTDYIRHNFGQTPLNQLSPEQLKTILTLLQEGKMVIPQPQQREATDRPLLPAEHNALKQLVTKLAAATGEPSKQIWQSMLELSGVKDGELIPAKLFNHLVTWLQARQTLSQQNTPTLESLQMTLKQPLDASELAALSAYIQQKYGLSAQSSLSSAQAEDILNQLYQRRVKGIDPRVMQPLLNPFPPMMDTLQNMATRPALWILLVAIILMLVWLVR
total protein half-life in vivo / h: 3.89

Biosequence: MKITLLVTLLFGLVFLTTVGAAERTLTPQQQRMTSCNQQATAQALKGDARKTYMSDCLKNSKSAPGEKSLTPQQQKMRECNNQATQQSLKGDDRNKFMSACLKKAA [P0AFM4]
total protein half-life in vivo / h: 5.82

Biosequence: MIPLQHGLILAAILFVLGLTGLVIRRNLLFMLIGLEIMINASALAFVVAGSYWGQTDGQVMYILAISLAAAEASIGLALLLQLHRRRQNLNIDSVSEMRG [P0AFE4]
total protein half-life in vivo / h: 6.43

Biosequence: MINYGVVGVGYFGAELARFMNMHDNAKITCVYDPENGENIARELQCINMSSLDALVSSKLVDCVIVATPNYLHKEPVIKAAKNKKHVFCEKPIALSYEDCVDMVKACKEAGVTFMAGHIMNFFNGVQYARKLIKEGVIGEILSCHTKRNGWENKQERLSWKKMKEQSGGHLYHHIHELDCVQHLLGEIPETVTMIGGNLAHSGPGFGNEDDMLFMTLEFPSGKLATLEWGSAFNWPEHYVIINGTKGSIKIDMQETAGSLRIGGQTKHFLVHETQEEDDDRRKGNMTSEMDGAIAYGHPGKKTPLWLASLIRKETLFLHNILCGAKPEEDYIDLLNGEAAMSAIATADAATLSRSQDRKVKISEIIKHTSVM
total protein half-life in vivo / h: 4.32

Biosequence: MSQVQSGILPEHCRAAIWIEANVKGEVDALRAASKTFADKLATFEAKFPDAHLGAVVAFGNNTWRALSGGVGAEELKDFPGYGKGLAPTTQFDVLIHILSLRHDVNFSVAQAAMEAFGDCIEVKEEIHGFRWVEERDLSGFVDGTENPAGEETRREVAVIKDGVDAGGSYVFVQRWEHNLKQLNRMSVHDQEMVIGRTKEANEEIDGDERPETSHLTRVDLKEDGKGLKIVRQSLPYGTASGTHGLYFCAYCARLHNIEQQLLSMFGDTDGKRDAMLRFTKPVTGGYYFAPSLDKLMAL
total protein half-life in vivo / h: 3.25

Biosequence: MTKLKLLALGVLIATSAGVAHAEGKFSLGAGVGVVEHPYKDYDTDVYPVPVINYEGDNFWFRGLGGGYYLWNDATDKLSITAYWSPLYFKAKDSGDHQMRHLDDRKSTMMAGLSYAHFTQYGYLRTTLAGDTLDNSNGIVWDMAWLYRYTNGGLTVTPGIGVQWNSENQNEYYYGVSRKESARSGLRGYNPNDSWSPYLELSASYNFLGDWSVYGTARYTRLSDEVTDSPMVDKSWTGLISTGITYKF [P0A908]
total protein half-life in vivo / h: 7.17

Biosequence: MAMYQNMLVVIDPNQDDQPALRRAVYLHQRIGGKIKAFLPIYDFSYEMTTLLSPDERTAMRQGVISQRTAWIHEQAKYYLNAGVPIEIKVVWHNRPFEAIIQEVISGGHDLVLKMAHQHDRLEAVIFTPTDWHLLRKCPSPVWMVKDQPWPEGGKALVAVNLASEEPYHNALNEKLVKETIELAEQVNHTEVHLVGAYPVTPINIAIELPEFDPSVYNDAIRGQHLLAMKALRQKFGINENMTHVEKGLPEEVIPDLAEHLQAGIVVLGTVGRTGISAAFLGNTAEQVIDHLRCDLLVIKPDQYQTPVELDDEEDD [P0AAC0]
total protein half-life in vivo / h: 4.77

Biosequence: MIVAFCLYKYFPFGGLQRDFMRIASTVAARGHHVRVYTQSWEGDCPKAFELIQVPVKSHTNHGRNAEYYAWVQNHLKEHPADRVVGFNKMPGLDVYFAADVCYAEKVAQEKGFLYRLTSRYRHYAAFERATFEQGKSTKLMMLTDKQIADFQKHYQTEPERFQILPPGIYPDRKYSEQIPNSREIYRQKNGIKEQQNLLLQVGSDFGRKGVDRSIEALASLPESLRHNTLLFVVGQDKPRKFEALAEKLGVRSNVHFFSGRNDVSELMAAADLLLHPAYQEAAGIVLLEAITAGLPVLTTAVCGYAHYIADANCGTVIAEPFSQEQLNEVLRKALTQSPLRMAWAENARHYADTQDLYSLPEKAADIITGGLDG
total protein half-life in vivo / h: 7.01

Biosequence: MSNPILSWRRVRALCVKETRQIVRDPSSWLIAVVIPLLLLFIFGYGINLDSSKLRVGILLEQRSEAALDFTHTMTGSPYIDATISDNRQELIAKMQAGKIRGLVVIPVDFAEQMERANATAPIQVITDGSEPNTANFVQGYVEGIWQIWQMQRAEDNGQTFEPLIDVQTRYWFNPAAISQHFIIPGAVTIIMTVIGAILTSLVVAREWERGTMEALLSTEITRTELLLCKLIPYYFLGMLAMLLCMLVSVFILGVPYRGSLLILFFISSLFLLSTLGMGLLISTITRNQFNAAQVALNAAFLPSIMLSGFIFQIDSMPAVIRAVTYIIPARYFVSTLQSLFLAGNIPVVLVVNVLFLIASAVMFIGLTWLKTKRRLD [P0AFQ2]
total protein half-life in vivo / h: 5.62
